B1: library; a variant is named by its letters at N, in order (parent)
chain: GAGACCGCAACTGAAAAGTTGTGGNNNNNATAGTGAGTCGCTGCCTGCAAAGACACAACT

Variants of: B1
Experiment: ligation selection enrichment (abundance after / before one-round selection) (fold); higher = more template-directed ligation activity
Details: with T7Psub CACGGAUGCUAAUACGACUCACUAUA; MgCl2 25 mM; 42 °C; 4 h; pH 8.5
Cut-off 0.3 on ligation selection enrichment, inclusive. At or above means met; below means not met.

Known results for variants:
- alteration: "GAGCA"
  label_value: "not met"
- alteration: "GGCCC"
  label_value: "not met"
- alteration: "TCTTG"
  label_value: "met"
- alteration: "CTACC"
  label_value: "not met"
- alteration: "TTGTT"
  label_value: "met"
- alteration: "CGTTG"
  label_value: "met"

Does ligation selection enrichment meet or surpass 0.3 for ATGGA ?
met

Can you check GAGAT next?
met

Can you check TATGT next?
not met

Can you check TCGTT next?
not met

Can you check AGGTG next?
not met

Can you check GCCTA next?
not met

Can you check TTCGT next?
not met

Can you check GGAGT next?
not met

Can you check GATCA next?
met

Can you check GCACG next?
met

Can you check GCCCA next?
not met
